- Test system: Streptococcus pneumoniae 1/1
- test.summary: MIC against Streptococcus pneumoniae 1/1
- Type: cell-based
- conditions: Table 2; Streptococcus pneumoniae 1/1, trimethoprim- and penicillin-resistant, serotype 6; clinical isolate; read-out: MIC Sp1/1
Provide the recorded MIC for the entries that follow.
Return type: number; implicit unit µg/mL.

Exam item: Dear colleague, I am looking for the recorded MIC of the following molecule: `CCOc1cc(Cc2cnc(N)nc2N)cc(OCC)c1-c1ccc(CN2CCC(=O)N2)cc1`
Marked response: 8

Exam item: Dear colleague, I am looking for the recorded MIC of the following molecule: `CCOc1cc(Cc2cnc(N)nc2N)cc(OS(=O)(=O)C2CCOCC2)c1-c1ccc(N)c(C)c1`
Marked response: 0.5

Exam item: Dear colleague, I am looking for the recorded MIC of the following molecule: `CCOc1cc(Cc2cnc(N)nc2N)cc(OS(=O)(=O)N(C)CC)c1-c1ccc(NC)cc1`
Marked response: 1

Exam item: Dear colleague, I am looking for the recorded MIC of the following molecule: `CCOc1cc(Cc2cnc(N)nc2N)cc(OS(=O)(=O)N(C)C2CC2)c1-c1ccc(NC)cc1`
Marked response: 1

Exam item: Dear colleague, I am looking for the recorded MIC of the following molecule: `CCOc1cc(Cc2cnc(N)nc2N)cc(OS(=O)(=O)C(C)C)c1-c1ccc(N)c(F)c1`
Marked response: 1

Exam item: Dear colleague, I am looking for the recorded MIC of the following molecule: `CCOc1cc(Cc2cnc(N)nc2N)cc(OCC2CC2)c1-c1ccc(N)c(C)c1`
Marked response: 1

Exam item: Dear colleague, I am looking for the recorded MIC of the following molecule: `CCOc1cc(Cc2cnc(N)nc2N)cc(OCC2(C)CC2)c1-c1ccc(O)cc1`
Marked response: 2

Exam item: Dear colleague, I am looking for the recorded MIC of the following molecule: `CCOc1cc(Cc2cnc(N)nc2N)cc(OS(C)(=O)=O)c1-c1ccc2c(c1)OCO2`
Marked response: 2
